The measured values listed here are drawn from PubChem BioAssay AID1159580.

- protocol_summary: chemical genetic growth profiling, strain panel (AID 1159580);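 also: tested at 20 µM; growth read once vehicle control cultures reached saturation at 30 °C; 1 = growth at the plate median or of vehicle wells; lower values mean less growth of the strain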
- experimental_conditions: S. cerevisiae deletion strains, growth OD, locus YCL029C, strain bik1, stronger effect = lower value
About 2,000 (36%) of roughly 5,500 compounds were called active. Another 18% or so got no clear call; they are omitted. Some of the results follow.
Can you tell me normalized growth for the items I'm about to list?
Answers are plain numbers.

C[C@@H]1O[C@@H](O[C@H]2[C@H](Oc3cc(O)c4c(=O)cc(-c5ccc(O)cc5)oc4c3)O[C@H](CO)[C@@H](O)[C@@H]2O)[C@H](O)[C@H](O)[C@H]1O; 0.977

Hi team, please reply with normalized growth for each item in this list.
1. COC(=O)c1cc(=O)c(O)c2c(O)c(O)ccc2c1
2. N[C@@H](Cc1ccc(N(CCCl)CCCl)cc1)C(=O)O
3. COc1cc(OC)c2c(c1)O[C@H](c1cc(OC)c(OC)c(OC)c1)[C@H](OC(=O)c1cc(OC)c(OC)c(OC)c1)C2

[0.713, 0.972, 1.01]
